Attribution: patent US11866416B2

Catalogue of Growth MIC50 readings, one per entry.
# Tested on: S. mutans
# PROTOCOL_SUMMARY: microbe, parasite or virus in culture
# Type: cell-based, Streptococcus mutans
# ASSAY_CONTEXT: Table 8, stilbenes; average of at least 5 measurements; NI = no inhibition
TEST_READOUT: Growth MIC50 (µM)

COMPOUND	NUMERIC_VALUE
Oc1ccc(/C=C/c2ccc(O)cc2)cc1	854
COc1cc(O)cc(/C=C/c2ccccc2)c1	546
Oc1cc(O)cc(/C=C/c2ccc(O)c(O)c2)c1	564
O=C(/C=C/c1ccc(O)c(O)c1)O[C@@H]1C[C@](O)(C(=O)O)C[C@@H](O)[C@H]1O	1724
Oc1ccc(/C=C/c2cc(O)cc(O)c2)cc1 [Resveratrol, reference compound]	546.4
